- Tested on: Bacillus subtilis
- test: cleaved RNA product abundance (RNA/gDNA barcode ratio) relative to median wild-type variant (ratio to wild type); higher = more accumulation of the downstream cleavage product
- reported_conditions: experiment (reporter, strain, medium): exp 2b: truncated aprE reporter, strain BJT200; cleavage site: cggR-gapA (positions -7 to +36 mutated)
Binary classification by cleaved RNA product abundance, with 0.1 as an inclusive lower bound for TRUE; all other cases are FALSE.

Some solved entries appear below for comparison.
>  <chain_sequence>
ACAGACGAAGGAGCCGCAAAGAAGTTATTAAGGGATGAATAATCCCTAAGTATAAATATCTCTCACTTATTTAAA

>  <qualitative_label>
TRUE

$$$$
>  <chain_sequence>
ACAGACGAAGGAGCCGCAAAGAAGTTATTAAGGGATAAATAATCCGTCAATATAAATATCTCTCACTTATTTAAA

>  <qualitative_label>
TRUE

$$$$
>  <chain_sequence>
ACAGACGAAGGAGCCGCAAAGAATTTATTCAGGGATGAATAATCCCTCAATATAAATATCTCTCACTTATTTAAA

>  <qualitative_label>
TRUE

$$$$
>  <chain_sequence>
ACAGACGAAGGAGCCGCAAAGAAGTTATTAAGTGATGAAGAATCCCTCAATATAAATATCTCTCACTTATTTAAA

>  <qualitative_label>
FALSE

$$$$

Next up:
Is reported cleaved RNA product abundance greater than or equal to 0.1 here: `ACAGACGAAGGAGCCGCAAAGAAGTTATTAATGGATGAATAATCCCTCGATATAAATATCTCTCACTTATTTAAA`
FALSE

Where these numbers come from: the supplement of paper PMC11780869
